Test system: HepG2 cells
experiment: Cytotoxicity by neutral red (NR) uptake
Format: cell-based, human
assayConditions: HepG2; 32 µg/mL; 24 h
readoutName: NR uptake (lysosomal activity), % of control

- compound: "O=C(O)c1cn(C2CC2)c2cc(N3CCNCC3)c(F)cc2c1=O [[CIP], ciprofloxacin, reference compound]"
  resultValue: "92.35 ± 6.807% (ns)"
- compound: "CCCCCCCCCCCCCC[n+]1ccc(C)cc1.[Br-] [Compound 4e]"
  resultValue: "21.52 ± 19.06% (****)"

Entry CCCCCCCCCCCCCC[N+](CC)(CC)CC.[Br-] [Compound 7e] , NR uptake (lysosomal activity), % of control reported as 16.59 ± 4.378% (****)

Value of NR uptake (lysosomal activity), % of control reported for the compound CCCCCCCCCCCCCC[n+]1ccn(C)c1.[Br-] [Compound 2e] is 13.64 ± 2.776% (****)

So, CCCCCCCCCCCCCC[P+](c1ccccc1)(c1ccccc1)c1ccccc1 [Compound 1e, Triphenyl(tetradecyl)phosphonium bromide] ? Its NR uptake (lysosomal activity), % of control was 13.78 ± 2.666% (****)

Reported NR uptake (lysosomal activity), % of control ( CCCCCCCCCCCCCC[n+]1cccc2ccccc21.[Br-] [Compound 5e, 1-Tetradecylquinolin-1-ium bromide] ) = 14.38 ± 4.045% (****)

----------
Test system: HepG2 cells
experiment: Cytotoxicity by neutral red (NR) uptake
Assay type: cell-based, human
assayConditions: HepG2; 16 µg/mL; 24 h
readoutName: NR uptake (lysosomal activity), % of control

response.value for CCCCCCCCCCCCCC[n+]1ccccc1.[Br-] [Compound 6e, 1-Tetradecylpyridin-1-ium bromide] (field: NR uptake (lysosomal activity), % of control) = 10.46 ± 3.129% (****)

----------
experiment: Chromatographic hydrophobicity index (CHI) by UHPLC
Format: physicochemical
assayConditions: LC/UV at pH 2.6; calculated from retention time with the calibration line
The label is 1 for CHI below 70 and -1 for CHI equal to or exceeding 70.

Example results:
- compound: "CCCCCCCC[n+]1ccn(C)c1.[Br-]"
  groupLabel: 1
- compound: "CCCCCCCC[n+]1cccc2ccccc21.[Br-] [Compound 5b, 1-Octylquinolin-1-ium bromide]"
  groupLabel: 1
- compound: "CCCCCCCCCCCCCCCC[n+]1ccn(C)c1.[Br-]"
  groupLabel: -1
- compound: "CCCCCC[P+](c1ccccc1)(c1ccccc1)c1ccccc1 [Compound 1a, Hexyltriphenylphosphonium bromide]"
  groupLabel: 1
- compound: "CCCCCCCCCC[n+]1ccn(C)c1.[Br-]"
  groupLabel: 1

Req: Record CCCCCC[n+]1ccc(C)cc1.[Br-] [Compound 4a, 1-Hexyl-4-methylpyridin-1-ium bromide] : is its CHI strictly below 70?
Resp: 1

Req: Decide: CHI of CCCCCCCCCCCCCC[P+](c1ccccc1)(c1ccccc1)c1ccccc1 [Compound 1e, Triphenyl(tetradecyl)phosphonium bromide] strictly below 70?
Resp: -1

----------
MIC, S. aureus XU212, per-entry values.
Express the result in µg/mL but write the number alone.

// known answers, use as guide
- compound: "CCCCCCCCCCCCCC[n+]1ccn(C)c1.[Br-]"
  resultValue: 32
- compound: "CCCCCCCCCCCCCC[n+]1ccccc1.[Br-] [Compound 6e, 1-Tetradecylpyridin-1-ium bromide]"
  resultValue: 32
- compound: "CCCCCCCCCCCCCC[P+](c1ccccc1)(c1ccccc1)c1ccccc1 [Compound 1e, Triphenyl(tetradecyl)phosphonium bromide]"
  resultValue: 2
- compound: "CCCCCCCCCCCCCC[n+]1ccc2ccccc2c1.[Br-] [Compound 3e, 2-Tetradecylisoquinolin-2-ium bromide]"
  resultValue: 4
- compound: "CCCCCCCCCCCCCC[n+]1ccc(C)cc1.[Br-]"
  resultValue: 32
- compound: "CCCCCCCCCCCCCC[n+]1cccc2ccccc21.[Br-] [Compound 5e, 1-Tetradecylquinolin-1-ium bromide]"
  resultValue: 8

# next compound below
Entry CCCCCCCCCCCCCC[N+](CC)(CC)CC.[Br-] , MIC reported as 32

----------
experiment: Chromatographic hydrophobicity index (CHI) by UHPLC
Assay type: physicochemical
assayConditions: back-calculated from CHI at pH 2.6: CHI LogP = 0.047 × CHI + 0.36 × HBC − 1.10
Listing of recorded chromatographic logP by entry.

- molecule: "CCCCCCCC[n+]1ccn(C)c1.[Br-]"
  chromatographic logP: 0.883
- molecule: "CCCCCCCCCC[P+](c1ccccc1)(c1ccccc1)c1ccccc1 [Compound 1c, Decyltriphenylphosphonium bromide]"
  chromatographic logP: 2.78
- molecule: "CCCCCCCC[n+]1ccccc1.[Br-] [Compound 6b, 1-Octylpyridin-1-ium bromide]"
  chromatographic logP: 0.817

// recorded chromatographic logP for CCCCCCCCCCCCCCCC[n+]1cccc2ccccc21.[Br-] [Compound 5f, 1-Hexadecylquinolin-1-ium bromide] : 3.65

Briefly, chromatographic logP measured for CCCCCCCCCCCCCCCCCC[P+](c1ccccc1)(c1ccccc1)c1ccccc1 [Compound 1g, Octadecyltriphenylphosphonium bromide] : 4.93

Form field chromatographic logP, entry CCCCCCCCCCCCCC[n+]1cccc2ccccc21.[Br-] [Compound 5e, 1-Tetradecylquinolin-1-ium bromide] : 3.04

Summary for this molecule, CCCCCC[n+]1ccc2ccccc2c1.[Br-] [Compound 3a, 2-Hexylisoquinolin-2-ium bromide] : chromatographic logP is 0.677

Entry under test: CCCCCCCCCCCCCCCC[P+](c1ccccc1)(c1ccccc1)c1ccccc1 [Compound 1f, Hexadecyltriphenylphosphonium bromide] . Its chromatographic logP was 4.33

So, CCCCCC[n+]1ccccc1.[Br-] [Compound 6a, 1-Hexylpyridin-1-ium bromide] ? Its chromatographic logP was 0.172

# chromatographic logP of CCCCCC[n+]1ccc(C)cc1.[Br-] [Compound 4a, 1-Hexyl-4-methylpyridin-1-ium bromide] = 0.361

The molecule identified as CCCCCCCCCCCC[n+]1ccc2ccccc2c1.[Br-] [Compound 3d, 2-Dodecylisoquinolin-2-ium bromide] registered its chromatographic logP at 2.4

The reported chromatographic logP of the molecule CCCCCCCC[n+]1ccc2ccccc2c1.[Br-] [Compound 3b, 2-Octylisoquinolin-2-ium bromide] was 1.25

chromatographic logP in this record for CCCCCCCCCC[n+]1ccc2ccccc2c1.[Br-] [Compound 3c, 2-Decylisoquinolin-2-ium bromide] : 1.8

Noted for CCCCCC[n+]1cccc2ccccc21.[Br-] [Compound 5a, 1-Hexylquinolin-1-ium bromide] : its chromatographic logP reads 0.638

chromatographic logP measured on CCCCCCCCCC[n+]1cccc2ccccc21.[Br-] [Compound 5c, 1-Decylquinolin-1-ium bromide] = 1.79

----------
experiment: Chromatographic hydrophobicity index (CHI) by UHPLC
Assay type: physicochemical
assayConditions: back-calculated from CHI at pH 2.6: CHI LogP = 0.047 × CHI + 0.36 × HBC − 1.10
Item-by-item account of chromatographic logP
Just the number.

Solved cases below.
- molecule: "CCCCCCCC[n+]1ccc(C)cc1.[Br-] [Compound 4b, 4-Methyl-1-octylpyridin-1-ium bromide]"
  readoutName: "chromatographic logP"
  resultValue: 0.963
- molecule: "CCCCCCCCCC[n+]1ccccc1.[Br-] [Compound 6c, 1-Decylpyridin-1-ium bromide]"
  readoutName: "chromatographic logP"
  resultValue: 1.4
- molecule: "CCCCCCCCCCCCCCCCCC[n+]1ccn(C)c1.[Br-]"
  readoutName: "chromatographic logP"
  resultValue: 4.03
- molecule: "CCCCCCCCCCCCCCCCCC[n+]1ccc2ccccc2c1"
  readoutName: "chromatographic logP"
  resultValue: 4.21

Just so you know, measured chromatographic logP for CCCCCCCC[P+](c1ccccc1)(c1ccccc1)c1ccccc1 [Compound 1b, Octyltriphenylphosphonium bromide] came out at 2.24

Lab note: measured chromatographic logP of CCCCCCCCCCCC[P+](c1ccccc1)(c1ccccc1)c1ccccc1 [Compound 1d, Dodecyltriphenylphosphonium bromide] was 3.34

According to the records, this molecule CCCCCCCCCCCCCCCC[n+]1ccccc1.[Br-] [Compound 6f, 1-Hexadecylpyridin-1-ium bromide] displays chromatographic logP of 3.34

// recorded chromatographic logP for CCCCCCCCCCCCCCCCCC[n+]1cccc2ccccc21.[Br-] [Compound 5g, 1-Octadecylquinolin-1-ium bromide] : 4.21

----------
experiment: Chromatographic hydrophobicity index (CHI) by UHPLC
Format: physicochemical
assayConditions: back-calculated from CHI at pH 2.6: CHI LogP = 0.047 × CHI + 0.36 × HBC − 1.10
chromatographic logP by entry:
# answer = number (no unit)

- molecule: "CCCCCCCCCCCCCCCC[n+]1ccc2ccccc2c1.[Br-] [Compound 3f, 2-Hexadecylisoquinolin-2-ium bromide]"
  chromatographic logP: 3.64
- molecule: "CCCCCC[P+](c1ccccc1)(c1ccccc1)c1ccccc1 [Compound 1a, Hexyltriphenylphosphonium bromide]"
  chromatographic logP: 1.75
- molecule: "CCCCCCCCCCCC[n+]1ccc(C)cc1.[Br-] [Compound 4d, 1-Dodecyl-4-methylpyridin-1-ium bromide]"
  chromatographic logP: 2.14
- molecule: "CCCCCCCCCCCCCC[n+]1ccccc1.[Br-] [Compound 6e, 1-Tetradecylpyridin-1-ium bromide]"
  chromatographic logP: 2.65
- molecule: "CCCCCCCCCCCCCC[n+]1ccc(C)cc1.[Br-]"
  chromatographic logP: 2.8

Value of chromatographic logP reported for the molecule CCCCCC[n+]1ccn(C)c1.[Br-] is 0.279

Entry CCCCCCCCCC[n+]1ccc(C)cc1.[Br-] [Compound 4c, 1-Decyl-4-methylpyridin-1-ium bromide] ; chromatographic logP = 1.53

Value of chromatographic logP reported for the molecule CCCCCCCCCCCCCC[n+]1ccn(C)c1.[Br-] is 2.72
